Below, each entry is listed alongside its reported combination Emax.
- Test system: SW1710 (Bladder Carcinoma)
- assay protocol: combination Emax (second highest fraction inhibited in the dose matrix, 72 h); higher = more inhibition; extreme values may be limits of the assay
API note: the answer field is a bare number with no unit suffix.

1) COc1nnc2ccc(N3CCC(c4ccc(OCCN5CCN(C)C(=O)[C@H]5C)cc4)CC3)nn12 [AZD5153] + C[C@@H]1COCCN1C2=NC(=NC(=C2)C3(CC3)[S@](=N)(=O)C)C4=C5C=CNC5=NC=C4 [AZD6738] (first compound max 1 µM, 7x7, partner max 10 µM) | 0.396

Ask: Give its combination Emax value. Item: Cn1cnc2c(F)c(Nc3ccc(Br)cc3Cl)c(C(=O)NOCCO)cc21 [Selumetinib] + C[C@@H]1COCCN1C2=NC(=NC(=C2)C3(CC3)[S@](=N)(=O)C)C4=C5C=CNC5=NC=C4 [AZD6738] (first compound max 10 µM, 7x7, partner max 10 µM)
Result: 0.26

Ask: Also check COc1nnc2ccc(N3CCC(c4ccc(OCCN5CCN(C)C(=O)[C@H]5C)cc4)CC3)nn12 [AZD5153] + Cn1cnc2c(F)c(Nc3ccc(Br)cc3Cl)c(C(=O)NOCCO)cc21 [Selumetinib] (first compound max 1 µM, 7x7, partner max 10 µM)
Result: 0.441

Ask: Also check CN(CCO)CC[C@H](CSc1ccccc1)Nc1ccc(S(=O)(=O)NC(=O)c2ccc(N3CCC([C@@H](O)c4ccccc4-c4ccc(Cl)cc4)CC3)cc2)cc1S(=O)(=O)C(F)(F)F [AZD4320] + CS(=O)(=O)CCNCc1ccc(-c2ccc3ncnc(Nc4ccc(OCc5cccc(F)c5)c(Cl)c4)c3c2)o1 [Lapatinib] (first compound max 1 µM, 7x7, partner max 10 µM)
Result: 0.553

Ask: Also check CN(CCO)CC[C@H](CSc1ccccc1)Nc1ccc(S(=O)(=O)NC(=O)c2ccc(N3CCC([C@@H](O)c4ccccc4-c4ccc(Cl)cc4)CC3)cc2)cc1S(=O)(=O)C(F)(F)F [AZD4320] + C[C@@H](Nc1cc(F)cc(F)c1)c1cc(C(=O)N(C)C)cc2c(=O)cc(N3CCOCC3)oc12 [AZD8186] (first compound max 1 µM, 7x7, partner max 3 µM)
Result: 0.373

Ask: Also check CC(=O)c1c(C)c2cnc(Nc3ccc(N4CCNCC4)cn3)nc2n(C2CCCC2)c1=O [Palbociclib] + CC1(C)CCC(CN2CCN(c3ccc(C(=O)NS(=O)(=O)c4ccc(NCC5CCOCC5)c([N+](=O)[O-])c4)c(Oc4cnc5[nH]ccc5c4)c3)CC2)=C(c2ccc(Cl)cc2)C1 [Venetoclax] (first compound max 10 µM, 7x7, partner max 1 µM)
Result: 0.246

---

- Tested on: LS-123 (Colorectal Carcinoma)
- assay protocol: combination Emax (second highest fraction inhibited in the dose matrix, 72 h); higher = more inhibition; extreme values may be limits of the assay
Below, each entry is listed alongside its reported combination Emax.

Below: 5 compounds and their reported combination Emax.
1. C[C@@H](c1ccc2nccn2c1)n1nnc2ncc(-c3cnn(C)c3)nc21 [Savolitinib] + CC1(C)CCC(CN2CCN(c3ccc(C(=O)NS(=O)(=O)c4ccc(NCC5CCOCC5)c([N+](=O)[O-])c4)c(Oc4cnc5[nH]ccc5c4)c3)CC2)=C(c2ccc(Cl)cc2)C1 [Venetoclax] (first compound max 1 µM, 7x7, partner max 1 µM) | 0.148
2. CC(=O)c1c(C)c2cnc(Nc3ccc(N4CCNCC4)cn3)nc2n(C2CCCC2)c1=O [Palbociclib] + CC1(C)CCC(CN2CCN(c3ccc(C(=O)NS(=O)(=O)c4ccc(NCC5CCOCC5)c([N+](=O)[O-])c4)c(Oc4cnc5[nH]ccc5c4)c3)CC2)=C(c2ccc(Cl)cc2)C1 [Venetoclax] (first compound max 10 µM, 7x7, partner max 1 µM) | 0.138
3. Cc1c2c(nn1C)CSCc1cc(n(C)n1)CSc1cc(c3ccccc3c1)OCCCc1c(C(=O)O)n(C)c3c-2c(Cl)ccc13 [AZD5991] + C[C@@H](Nc1cc(F)cc(F)c1)c1cc(C(=O)N(C)C)cc2c(=O)cc(N3CCOCC3)oc12 [AZD8186] (first compound max 1 µM, 7x7, partner max 3 µM) | 0.336
4. NC1(C(=O)N[C@@H](CCO)c2ccc(Cl)cc2)CCN(c2ncnc3[nH]ccc23)CC1 [Capivasertib] + Cn1cnc2c(F)c(Nc3ccc(Br)cc3Cl)c(C(=O)NOCCO)cc21 [Selumetinib] (first compound max 10 µM, 7x7, partner max 10 µM) | 0.555
5. COc1nnc2ccc(N3CCC(c4ccc(OCCN5CCN(C)C(=O)[C@H]5C)cc4)CC3)nn12 [AZD5153] + C=CCn1c(=O)c2cnc(Nc3ccc(N4CCN(C)CC4)cc3)nc2n1-c1cccc(C(C)(C)O)n1 [AZD1775] (first compound max 1 µM, partner max 1 µM) | 0.546

Ask: Observed combination Emax on LS-123 (Colorectal Carcinoma) for C=CCn1c(=O)c2cnc(Nc3ccc(N4CCN(C)CC4)cc3)nc2n1-c1cccc(C(C)(C)O)n1 [AZD1775] + C[C@@H]1COCCN1C2=NC(=NC(=C2)C3(CC3)[S@](=N)(=O)C)C4=C5C=CNC5=NC=C4 [AZD6738] (first compound max 1 µM, partner max 10 µM) , please.
Result: 0.892

Ask: Also check Cc1nc(Nc2ncc(C(=O)Nc3c(C)cccc3Cl)s2)cc(N2CCN(CCO)CC2)n1 [Dasatinib] + CC(=O)Nc1cccc(-n2c(=O)n(C3CC3)c(=O)c3c(Nc4ccc(I)cc4F)n(C)c(=O)c(C)c32)c1 [Trametinib] (first compound max 2 µM, 7x7, partner max 1 µM)
Result: 0.928
